molecular target: rat MCH-1R (Rattus norvegicus); experiment: Aequorin bioluminescence functional assay, MCH-1R agonist activity; conditions: 293-AEQ17 cells expressing rat MCH-1R
Sequence (P97639 whole entry): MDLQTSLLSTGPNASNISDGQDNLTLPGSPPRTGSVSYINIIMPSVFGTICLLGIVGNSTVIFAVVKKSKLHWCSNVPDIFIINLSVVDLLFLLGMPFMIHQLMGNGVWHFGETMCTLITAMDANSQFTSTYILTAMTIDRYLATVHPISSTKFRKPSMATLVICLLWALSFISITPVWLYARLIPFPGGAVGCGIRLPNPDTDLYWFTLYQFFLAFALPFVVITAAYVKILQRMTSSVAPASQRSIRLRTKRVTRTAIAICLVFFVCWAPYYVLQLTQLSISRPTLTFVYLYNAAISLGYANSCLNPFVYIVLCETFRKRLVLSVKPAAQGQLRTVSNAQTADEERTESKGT
Where a SMILES comes first, the peptide text is derived from it. Bridges are numbered along the chain shown (N, C = ends). [ ]: non-standard residue; d: D form. The star is where a group is joined. Pentanoyl(5-guanidino) = NC(N)=NCCCCC(=O)*; Ava = NCCCCC(=O)O
Parameter: MCH-1R Agonist Activation % (%)
Entry rule: numbers only, all in %.

Query: Recorded MCH-1R Agonist Activation % of CSCC[C@@H]1NC(=O)[C@@H](NC(=O)[C@@H](CCCNC(=N)N)NC(C)=O)CSSC[C@@H](C(N)=O)NC(=O)[C@@H]2CCCN2C(=O)[C@H](CCCNC(=N)N)NC(=O)[C@H](Cc2ccc(O)cc2)NC(=O)[C@H](C(C)C)NC(=O)[C@H](CCCNC(=N)N)NC(=O)CCCCNC(=O)CCCCNC1=O [SEQ. ID. NO. 4] (Ac-[dR]CM[Ava][Ava]RVYRPC-NH2; disulfide 2-11 (inferred); C-terminus assumed) , please.
Result: 72

Query: Which MCH-1R Agonist Activation % value belongs to CSCC[C@@H]1NC(=O)[C@@H](NC(=O)CCCCNC(=N)N)CSSC[C@@H](C(N)=O)NC(=O)[C@@H]2CCCN2C(=O)[C@H](CCCNC(=N)N)NC(=O)[C@H](Cc2ccc(O)cc2)NC(=O)[C@H](C(C)C)NC(=O)[C@H](CCCNC(=N)N)NC(=O)CCCCNC(=O)CCCCNC1=O [SEQ. ID. NO. 5] ({Pentanoyl(5-guanidino)}-CM[Ava][Ava]RVYRPC-NH2; disulfide 1-10 (inferred); C-terminus assumed) ?
Result: 10

Query: Please report the recorded MCH-1R Agonist Activation % for `CSCC[C@@H]1NC(=O)[C@@H](NC(=O)CCCCNC(=N)N)CSSC[C@@H](C(N)=O)NC(=O)CCCCNC(=O)CCCCNC(=O)[C@H](Cc2ccc(O)cc2)NC(=O)[C@H](C(C)C)NC(=O)[C@H](CCCNC(=N)N)NC(=O)CNC(=O)[C@H](CC(C)C)NC1=O` .
Result: 3
